System: OVCAR-3
testMethodNotes: NCI tumour cell line growth inhibition, 48 h
Activity calls are given as the source filed them. Cut-off read from the data, not from the text of the source: active = GI50 up to about 1.1 µM and inactive = higher.
// allowed return values: active, inactive

Consider the worked cases shown below.
- CC(Oc1ccccc1Cl)C(=O)NN1C(=O)CC(=O)NC1=S (stereo not drawn): inactive
- CCCc1cn2c(/C=N/NC(=N)N)c(-c3ccc([N+](=O)[O-])cc3)nc2s1: active

Just curious, what result did Cc1ccc(Nc2nc(O)c3[nH]cnc3n2)cc1CO get here?
inactive

And then O=C1N/C(=N\N=C\c2ccccc2)C(c2ccccc2)O1 (stereo not drawn) , what is it?
inactive

And then CCOC(=O)N1[C@@H]2CCC[C@@H]2C(=O)[C@@H]2CCC[C@@H]21 , what is it?
inactive

And then CC(=O)NC(CCCCN(Cc1ccccc1)C(=O)NCCCl)C(=O)NCc1ccccc1 (stereo not drawn) , what is it?
inactive

And then NC(=O)N/N=C(\CC1OC(=O)c2ccccc21)c1ccc([N+](=O)[O-])cc1 (stereo not drawn) , what is it?
inactive

And then CC(=O)c1cc2c(s1)C(=O)c1ccccc1C2=O , what is it?
active
